# study_system: CyclinA2/CDK2 (Homo sapiens)
# Construct: purchased CRELUX Protein Services
# experiment: Fluorescence Polarization (FP) competitive binding assay, Cyclin A2/Cdk2;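 note: plates equilibrated two hours at room temperature before polarization reading, IC50 fitted from eight-concentration compound titration curves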
# measurement_context: 8 nM Cyclin A2/Cdk2, 2 nM FAM probe; average of 2-3 independent experiments; read-out: Cyclin A FP IC50
*1 amine or outer side, *2 acyl side, *3 side chain or, on linkers, in order; H or OH if unused. Where a SMILES comes first, the peptide text is derived from it. Bridges are numbered along the chain shown (N, C = ends). [ ]: non-standard residue; d: D form. The star is where a group is joined. X85 = CN([C@@H](Cc1cc(Cl)ccc1-c1ccc([C@]23CCOC[C@H]2C3)nc1)C(=O)[*:2])[*:1]; X128 = CC(C)C(=O)N1C2C=C(c3ccc(F)cc3C[C@@H](C(=O)[*:2])N(C)[*:1])CC1COC2; X145 = CN1CCN(c2ccc(-c3ccc(F)cc3C[C@@H](C(=O)[*:2])N(C)[*:1])cc2F)CC1; X12 = CN1CCN(c2ccc(-c3ccc(F)cc3C[C@@H](C(=O)[*:2])N(C)[*:1])cc2)CC1; X81 = COc1cc(N2CCOCC2)ccc1-c1ccc(Cl)cc1C[C@@H](C(=O)[*:2])N(C)[*:1]; X208 = CN([C@@H](Cc1cc(F)ccc1-c1cnn(CC(F)F)c1)C(=O)[*:2])[*:1]; X60 = CN([C@@H](Cc1cc(Cl)ccc1-c1cnn2ccncc12)C(=O)[*:2])[*:1]; NMehhhLys(Me) = CN([C@@H](CCCCCCCN(C)[*:3])C(=O)[*:2])[*:1]; X22 = CN([C@@H](Cc1cc(Cl)ccc1-c1cnn(C)c1)C(=O)[*:2])[*:1]; Cyclobutanecarbonyl(1-CF3) = O=C(C1(C(F)(F)F)CCC1)*; cBuCO(3,3-F2-1-CF3) = O=C(C1(C(F)(F)F)CC(F)(F)C1)*; Pro(trans-4-F) = O=C(O)[C@@H]1C[C@@H](F)CN1; Pro(4,4-F2) = O=C(O)[C@@H]1CC(F)(F)CN1; Gly(cPr) = N[C@H](C(=O)O)C1CC1
Please respond with criterion met when measured IC50 is strictly beneath 30 nM, and with criterion not met in all other cases.

{"compound": "CC(C)C[C@@H]1NC(=O)[C@@H](N(C)C(=O)[C@@H](NC(=O)[C@@H]2C[C@@H](F)CN2C(=O)C2(C(F)(F)F)CC(F)(F)C2)C2CC2)CCCCCCCN(C)C(=O)[C@H](Cc2cc(Cl)ccc2-c2cnn3ccncc23)N(C)C1=O [Example 305] ({cBuCO(3,3-F2-1-CF3)}-[Pro(trans-4-F)][Gly(cPr)][NMehhhLys(Me)]L[X60]; lactam 3-C)", "class_assignment": "criterion not met"}
{"compound": "COc1cc(N2CCOCC2)ccc1-c1ccc(Cl)cc1C[C@H]1C(=O)N(C)CCCCCCC[C@H](N(C)C(=O)[C@@H](NC(=O)[C@@H]2C[C@@H](F)CN2C(=O)C2(C(F)(F)F)CC(F)(F)C2)C2CC2)C(=O)N[C@@H](CC(C)C)C(=O)N1C [Example 361] ({cBuCO(3,3-F2-1-CF3)}-[Pro(trans-4-F)][Gly(cPr)][NMehhhLys(Me)]L[X81]; lactam 3-C)", "class_assignment": "criterion not met"}
{"compound": "CC(C)C[C@@H]1NC(=O)[C@@H](N(C)C(=O)[C@@H](NC(=O)[C@@H]2C[C@@H](F)CN2C(=O)C2(C(F)(F)F)CC(F)(F)C2)C2CC2)CCCCCCCN(C)C(=O)[C@H](Cc2cc(F)ccc2C2=CC3COCC(C2)N3C(=O)C(C)C)N(C)C1=O (stereo partly drawn) [Example 151] ({cBuCO(3,3-F2-1-CF3)}-[Pro(trans-4-F)][Gly(cPr)][NMehhhLys(Me)]L[X128]; lactam 3-C)", "class_assignment": "criterion met"}
{"compound": "Cc1nnc(-c2ccc(Cl)cc2C[C@H]2C(=O)NCCCCC=CC[C@H](N(C)C(=O)[C@@H](NC(=O)[C@@H]3C[C@@H](F)CN3C(=O)C3(C(F)(F)F)CCC3)C3CC3)C(=O)N[C@@H](CC(C)C)C(=O)N2C)o1 (single isomer, unassigned) [Example 117-P1]", "class_assignment": "criterion not met"}
{"compound": "CC(C)C[C@@H]1NC(=O)[C@@H](N(C)C(=O)[C@@H](NC(=O)[C@@H]2C[C@@H](F)CN2C(=O)C2(C(F)(F)F)CC(F)(F)C2)C2CC2)CCCCCCCN(C)C(=O)[C@H](Cc2cc(Cl)ccc2-c2ccc([C@]34CCOC[C@H]3C4)nc2)N(C)C1=O [Example 369] ({cBuCO(3,3-F2-1-CF3)}-[Pro(trans-4-F)][Gly(cPr)][NMehhhLys(Me)]L[X85]; lactam 3-C)", "class_assignment": "criterion met"}
{"compound": "CC(C)C[C@@H]1NC(=O)[C@@H](N(C)C(=O)[C@@H](NC(=O)[C@@H]2C[C@@H](F)CN2C(=O)C2(C(F)(F)F)CC(F)(F)C2)C2CC2)CC=CCCCCN(C)C(=O)[C@H](Cc2cc(F)ccc2-c2cnn(C3CC3)c2)N(C)C1=O", "class_assignment": "criterion not met"}
{"compound": "CC(C)C[C@@H]1NC(=O)[C@@H](N(C)C(=O)[C@@H](NC(=O)[C@@H]2C[C@@H](F)CN2C(=O)C2(C(F)(F)F)CCC2)C2CC2)CCCCCCCN(C)C(=O)[C@H](Cc2cc(F)ccc2-c2cnn(CC(F)F)c2)N(C)C1=O [Example 92] ({Cyclobutanecarbonyl(1-CF3)}-[Pro(trans-4-F)][Gly(cPr)][NMehhhLys(Me)]L[X208]; lactam 3-C)", "class_assignment": "criterion met"}
{"compound": "CC(C)C[C@@H]1NC(=O)[C@@H](N(C)C(=O)[C@@H](NC(=O)[C@@H]2C[C@@H](F)CN2C(=O)C2(C(F)(F)F)CC(F)(F)C2)C2CC2)CCCCCCCN(C)C(=O)[C@H](Cc2cc(F)ccc2-c2ccc(N3CCN(C)CC3)c(F)c2)N(C)C1=O [Example 401] ({cBuCO(3,3-F2-1-CF3)}-[Pro(trans-4-F)][Gly(cPr)][NMehhhLys(Me)]L[X145]; lactam 3-C)", "class_assignment": "criterion met"}
{"compound": "CC(C)C[C@@H]1NC(=O)[C@@H](N(C)C(=O)[C@@H](NC(=O)[C@@H]2C[C@@H](F)CN2C(=O)C2(C(F)(F)F)CC(F)(F)C2)C2CC2)CCCCCCCN(C)C(=O)[C@H](Cc2cc(F)ccc2-c2ccc(N3CCN(C)CC3)cc2)N(C)C1=O [Example 353] ({cBuCO(3,3-F2-1-CF3)}-[Pro(trans-4-F)][Gly(cPr)][NMehhhLys(Me)]L[X12]; lactam 3-C)", "class_assignment": "criterion met"}
{"compound": "CC(C)C[C@@H]1NC(=O)[C@@H](N(C)C(=O)[C@@H](NC(=O)[C@@H]2C[C@@H](F)CN2C(=O)C2(C(F)(F)F)CCC2)C2CC2)CC=CCCCCN(C)C(=O)[C@H](Cc2cc(Cl)cnc2OC(C)C)N(C)C1=O", "class_assignment": "criterion not met"}
{"compound": "CC(C)C[C@@H]1NC(=O)[C@@H](N(C)C(=O)[C@@H](NC(=O)[C@@H]2CC(F)(F)CN2C(=O)C2(C(F)(F)F)CC(F)(F)C2)C2CC2)CCCCCCCN(C)C(=O)[C@H](Cc2cc(Cl)ccc2-c2cnn(C)c2)N(C)C1=O [Example 343] ({cBuCO(3,3-F2-1-CF3)}-[Pro(4,4-F2)][Gly(cPr)][NMehhhLys(Me)]L[X22]; lactam 3-C)", "class_assignment": "criterion met"}
